target-system: Scrib PDZ-3 domain (Homo sapiens, UniProt Q14160)
Construct: ROC curves of DomPep prediction for the three Scrib PDZ-1/2/3 domains
Sequence (Q14160 1004-1093 limits assumed): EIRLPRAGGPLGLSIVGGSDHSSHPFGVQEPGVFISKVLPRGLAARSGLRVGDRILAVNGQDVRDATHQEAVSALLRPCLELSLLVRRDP
assay-comment: In-solution fluorescence polarization binding of peptides to Scrib PDZ3
test-context: Kd value of 100 µM applied as binding cutoff, NB without definition
Residues, ends and D or L forms follow the SMILES beside them.
Exercise: state measured Kd for each of the compounds provided.
Return type: number; implicit unit µM.

IN: Would you kindly share the measured Kd for CC(C)[C@H](NC(=O)[C@H](CO)NC(=O)[C@@H](NC(=O)[C@@H](NC(=O)CNC(=O)[C@H](CCC(=O)O)NC(=O)[C@H](C)NC(=O)[C@H](CCCNC(=N)N)NC(=O)[C@H](CCC(=O)O)NC(=O)[C@@H](N)CS)[C@@H](C)O)C(C)C)C(=O)O [MUSK] (H-CERAEGTVSV-OH) ?
OUT: 143

IN: Tell me the measured Kd of CC(C)C[C@H](NC(=O)[C@H](CCC(=O)O)NC(=O)[C@H](CCC(=O)O)NC(=O)[C@H](CCCNC(=N)N)NC(=O)[C@@H](NC(=O)[C@H](C)NC(=O)[C@H](CO)NC(=O)[C@@H](NC(=O)[C@H](CCCCN)NC(=O)[C@@H](N)CCC(=O)O)C(C)C)[C@@H](C)O)C(=O)O (H-EKVSATREEL-OH) , please.
OUT: 88.1

* * *

target-system: Scrib PDZ-1 domain (Homo sapiens)
Construct: ROC curves of DomPep prediction for the three Scrib PDZ-1/2/3 domains
Sequence (Q14160 728-815 limits assumed): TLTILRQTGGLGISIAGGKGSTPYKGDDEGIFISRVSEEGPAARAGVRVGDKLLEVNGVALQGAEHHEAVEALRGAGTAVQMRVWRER
assay-comment: In-solution fluorescence polarization binding of peptides to Scrib PDZ1
test-context: Kd value of 100 µM applied as binding cutoff, NB without definition, read-out: Kd (µM) PDZ1
Residues, ends and D or L forms follow the SMILES beside them.
Give measured Kd for each item. Keep answers brief.

IN: Would you mind telling me what Kd value was observed for CSCC[C@H](NC(=O)[C@H](CCCNC(=N)N)NC(=O)[C@H](CCCCN)NC(=O)[C@H](CCC(=O)O)NC(=O)[C@H](C)NC(=O)[C@@H](N)Cc1ccc(O)cc1)C(=O)N[C@@H](CC(C)C)C(=O)N[C@H](C(=O)N[C@@H](CCC(=O)O)C(=O)N[C@H](C(=O)O)C(C)C)[C@@H](C)O [KCNA6] (H-YAEKRMLTEV-OH) ?
OUT: > 100 µM

IN: Entry CC(C)C[C@H](NC(=O)[C@@H](N)C(C)C)C(=O)N[C@@H](CCC(N)=O)C(=O)N[C@@H](CCCNC(=N)N)C(=O)N[C@@H](Cc1c[nH]cn1)C(=O)N[C@H](C(=O)N[C@H](C(=O)NCC(=O)N[C@@H](CCCCN)C(=O)N[C@@H](C)C(=O)O)[C@@H](C)O)[C@@H](C)O [ACBD6] (H-VLQRHTTGKA-OH; N-terminus and C-terminus assumed) has what Kd?
OUT: > 100 µM

IN: Using the record for CC[C@H](C)[C@H](NC(=O)[C@H](CC(C)C)NC(=O)[C@H](CCC(N)=O)NC(=O)[C@H](CCSC)NC(=O)[C@H](CC(N)=O)NC(=O)[C@H](Cc1ccccc1)NC(=O)[C@@H](N)CO)C(=O)N[C@@H](CO)C(=O)N[C@@H](CCC(N)=O)C(=O)N[C@H](C(=O)O)C(C)C [FAM126B] (H-SFNMQLISQV-OH) , report its Kd.
OUT: > 100 µM
